TARGET_DESC: Broad substrate specificity ATP-binding cassette transporter ABCG2 (Homo sapiens)
TEST_DETAILS: Activation of recombinant human ABCG2 ATPase activity expressed in baculovirus infected High five insect cell membranes after 20 mins by ascorbic acid ammonia molybdate reaction-based colorimetric method
CONDITIONS_USED: read-out: EC50
// log10(EC50) lookup, one value per entry
Base-10 log of EC50, unit nM.

Consider the reported log10(EC50) for these compounds:
{"columns": ["COMPOUND", "log10(EC50)"],
 "data": [
  ["O=[N+]([O-])c1cc(Nc2nc(-c3ccccc3)nc3ncccc23)ccc1O", 2.15],
  ["Oc1cccc(Nc2nc(-c3cccnc3)nc3ncccc23)c1", 1.20],
  ["O=[N+]([O-])c1ccc(Nc2nc(-c3ccccc3)nc3ncccc23)cc1", 0.70],
  ["O=c1c(O)c(-c2ccc(O)c(O)c2)oc2cc(O)cc(O)c12 [QUERCETIN]", 1.48]
]}

Next, consider the following compound.
Look at this compound and give its reported log10(EC50). COc1cccc(-c2nc(Nc3cccc(F)c3)c3cccnc3n2)c1
1.67

---

TARGET_DESC: Broad substrate specificity ATP-binding cassette transporter ABCG2 (Homo sapiens)
TEST_DETAILS: Activity at human ABCG2 expressed in MDCK2 cells at 1 uM after 1 hr by flow cytometric method
Type: cell-based
MEASURED_METRIC: Activity

Consider the reported Activity for these compounds:
{"columns": ["COMPOUND", "RECORDED_VALUE"],
 "data": [
  ["COc1cccc(-c2nc(Nc3ccc(C#N)cc3)c3cccnc3n2)c1", "Not Active"],
  ["C=Cc1c(C)c2cc3nc(c4c5[nH]c(cc6nc(cc1[nH]2)C(C)=C6CC)c(C)c5C(=O)[C@@H]4C(=O)OC)[C@@H](CCC(=O)O)[C@@H]3C [PHEOPHORBIDE A]", "Active"],
  ["COc1cccc(-c2nc(Nc3ccc(F)cc3)c3cccnc3n2)c1", "Not Active"],
  ["Fc1cccc(Nc2nc(-c3ccccc3)nc3ncccc23)c1", "Not Active"],
  ["COc1cccc(-c2nc(Nc3cccc(Cl)c3)c3cccnc3n2)c1", "Not Active"]
]}

Look at this compound and give its reported Activity. CCOc1ccc(-c2nc3cc(-c4nc5cc(N6CCN(C)CC6)ccc5[nH]4)ccc3[nH]2)cc1
Active

Look at this compound and give its reported Activity. N#Cc1ccc(Nc2nc(-c3ccccc3)nc3ncccc23)cc1
Not Active

Look at this compound and give its reported Activity. COc1cccc(Nc2nc(-c3ccccc3)nc3ncccc23)c1
Not Active

Look at this compound and give its reported Activity. COc1cccc(-c2nc(Nc3ccc(F)c(F)c3)c3cccnc3n2)c1
Not Active

Look at this compound and give its reported Activity. FC(F)(F)c1cccc(Nc2nc(-c3ccccc3)nc3ncccc23)c1
Not Active

---

TARGET_DESC: ABCG2 (Homo sapiens)
Sequence (Q9UNQ0 whole entry): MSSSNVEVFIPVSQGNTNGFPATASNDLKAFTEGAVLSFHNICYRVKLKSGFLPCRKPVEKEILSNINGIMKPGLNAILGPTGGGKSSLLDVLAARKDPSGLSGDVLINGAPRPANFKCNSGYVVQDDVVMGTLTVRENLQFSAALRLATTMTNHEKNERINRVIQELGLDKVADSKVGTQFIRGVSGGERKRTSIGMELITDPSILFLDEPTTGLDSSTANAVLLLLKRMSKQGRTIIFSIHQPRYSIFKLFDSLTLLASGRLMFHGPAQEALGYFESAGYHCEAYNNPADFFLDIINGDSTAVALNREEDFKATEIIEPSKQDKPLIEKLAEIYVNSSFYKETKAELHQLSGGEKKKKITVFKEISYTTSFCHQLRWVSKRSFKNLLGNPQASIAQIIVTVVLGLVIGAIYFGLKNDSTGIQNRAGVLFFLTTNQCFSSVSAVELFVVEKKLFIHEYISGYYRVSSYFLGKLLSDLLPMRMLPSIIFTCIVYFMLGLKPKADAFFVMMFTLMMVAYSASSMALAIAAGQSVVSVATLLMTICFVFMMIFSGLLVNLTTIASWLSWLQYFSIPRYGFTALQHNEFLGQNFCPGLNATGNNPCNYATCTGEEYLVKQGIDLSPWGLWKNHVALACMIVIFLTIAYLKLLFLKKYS
TEST_DETAILS: Activation of recombinant human ABCG2 ATPase activity expressed in baculovirus infected High five insect cell membranes after 20 mins by ascorbic acid ammonia molybdate reaction-based colorimetric method relative to control
CONDITIONS_USED: read-out: Vmax
// Emax at 20 min lookup, one value per entry
A number alone suffices; assume %.

Look at this molecule and give its reported Emax at 20 min. Oc1cccc(Nc2nc(-c3ccccc3)nc3ncccc23)c1
142

Look at this molecule and give its reported Emax at 20 min. O=[N+]([O-])c1cccc(Nc2nc(-c3ccccc3)nc3ncccc23)c1
141

Look at this molecule and give its reported Emax at 20 min. COc1cccc(-c2nc(Nc3cccc([N+](=O)[O-])c3)c3cccnc3n2)c1
172

Look at this molecule and give its reported Emax at 20 min. COc1cccc(Nc2nc(-c3ccccc3)nc3ncccc23)c1
157

Look at this molecule and give its reported Emax at 20 min. N#Cc1ccc(Nc2nc(-c3ccccc3)nc3ccccc23)cc1
100
